Tested on: P. vulgaris
Test: Antibacterial activity, minimum inhibitory concentration
Format: cell-based
Parameters: key: R: resistant; S: sensitive
Conditions: 125 µg/200 µL
readoutKind: Minimum inhibitory concentration: sensitive/resistant

>  <compound>
Oc1ccc(N=Nc2cccnc2Cl)c(O)c1

>  <targetDesc>
P. vulgaris

>  <recordedValue>
R

$$$$
>  <compound>
Oc1ccc(N=Nc2cccnc2Cl)c2ccccc12

>  <targetDesc>
P. vulgaris

>  <recordedValue>
R

$$$$
>  <compound>
CC1(C)S[C@@H]2[C@H](NC(=O)[C@H](N)c3ccccc3)C(=O)N2[C@H]1C(=O)O [Ampicillin, reference compound]

>  <targetDesc>
P. vulgaris

>  <recordedValue>
S

$$$$
>  <compound>
O=[N+]([O-])c1ccc(/N=N/c2c(O)ccc3ccccc23)cc1

>  <targetDesc>
P. vulgaris

>  <recordedValue>
R

$$$$
>  <compound>
O=[N+]([O-])c1ccc(/N=N/c2ccc(O)cc2O)cc1

>  <targetDesc>
P. vulgaris

>  <recordedValue>
S

$$$$
>  <compound>
O=[N+]([O-])c1ccc(/N=N/c2ccc(O)c3ccccc23)cc1

>  <targetDesc>
P. vulgaris

>  <recordedValue>
R

$$$$

Data provenance is paper PMC8274517.
